Attribution: paper PMC7753147

# Test system: gephE
# TEST_DETAILS: µSPOT peptide microarray binding assay with recombinant gephE
# ASSAY_CONDITIONS: µSPOT peptide microarray, GlyRβ full positional scan, recombinant gephE; intensity normalised to wild-type sequence DLRSNDFSIVGSLPR (=1)
QUANTITY_KIND: gephE Binding Intensity [norm.] (norm.)

Known gephE Binding Intensity [norm.] results, listed for orientation:
SEQUENCE_ENTRY: SLRSNDFSIVGSLPR [GlyRβ_Full_Positional_Scan_015]
TARGET_UNDER_TEST: gephE
QUANTITY_KIND: gephE Binding Intensity [norm.]
NUMERIC_READOUT: 1.04

SEQUENCE_ENTRY: DLRSNDFLIVGSLPR [GlyRβ_Full_Positional_Scan_144, GlyR β 414-428 variant S421L]
TARGET_UNDER_TEST: gephE
QUANTITY_KIND: gephE Binding Intensity [norm.]
NUMERIC_READOUT: 0.6

SEQUENCE_ENTRY: DLRSNDFSIAGSLPR [GlyRβ_Full_Positional_Scan_181, GlyR β 414-428 variant V423A]
TARGET_UNDER_TEST: gephE
QUANTITY_KIND: gephE Binding Intensity [norm.]
NUMERIC_READOUT: 0.51

SEQUENCE_ENTRY: DLRSPDFSIVGSLPR [GlyRβ_Full_Positional_Scan_085]
TARGET_UNDER_TEST: gephE
QUANTITY_KIND: gephE Binding Intensity [norm.]
NUMERIC_READOUT: 0.95

SEQUENCE_ENTRY: DLRSSDFSIVGSLPR [GlyRβ_Full_Positional_Scan_095]
TARGET_UNDER_TEST: gephE
QUANTITY_KIND: gephE Binding Intensity [norm.]
NUMERIC_READOUT: 0.99

[a] DLRSNDFHIVGSLPR [GlyRβ_Full_Positional_Scan_153, GlyR β 414-428 variant S421H]
[b] DLRSNDFDIVGSLPR [GlyRβ_Full_Positional_Scan_150, GlyR β 414-428 variant S421D]
## Task Lab note: record which item had the higher gephE Binding Intensity [norm.], a or b . Give the chosen item's label as your response.
## Result a
(a: 0.8 norm., b: 0.53 norm.)

[A] DLRSYDFSIVGSLPR [GlyRβ_Full_Positional_Scan_089]
[B] DLRSNDISIVGSLPR [GlyRβ_Full_Positional_Scan_123, GlyR β 414-428 variant F420I]
## Task Sort A and B by gephE Binding Intensity [norm.] descending and give the first. Answer by stating the label of the chosen item.
## Result A
(A: 0.89 norm., B: 0.57 norm.)
